Assay: suppressors of polyQ aggregation in yeast, 75Q-TubU reporter (AID 1593)
Details: Yeast 75Q polyglutamine aggregation reporter
Item-by-item account of score

- molecule: "CCC1(CCC(C)C)C(=O)NC(=O)NC1=O"
  score: 1.7
- molecule: "C=CCN1CC[C@]23c4c5ccc(O)c4OC2C(=O)CC[C@@]3(O)[C@H]1C5 (some centres not stated)"
  score: 1.27
- molecule: "C/C=C(/C)C(=O)O[C@H]1CC[C@@]2(C)[C@@H]3CC[C@H]4[C@]5(O)C[C@H](O)[C@@]6(O)[C@@H](CN7C[C@@H](C)CC[C@H]7[C@@]6(C)O)[C@]5(O)C[C@@]42O[C@]13O"
  score: 1.23
- molecule: "NC1C[C@H]1c1ccccc1 (some centres not stated)"
  score: 0.95
- molecule: "CCCC(C)C1(CC)C(=O)N=C(S)NC1=O (configuration not stated)"
  score: 1.17
- molecule: "C[N+](C)(C)CC#CCN1CCCC1=O"
  score: 1.29
- molecule: "C[N+](C)(C)CC(=O)[O-]"
  score: 1.09
- molecule: "O=c1ccc2cc(O[C@H]3O[C@H](CO)[C@@H](O)[C@H](O)[C@H]3O)c(O)cc2o1"
  score: 0.99
- molecule: "Clc1ccc(COC(Cn2ccnc2)c2ccc(Cl)cc2Cl)cc1 (configuration not stated)"
  score: 0.26
- molecule: "CN1C(=O)CCS(=O)(=O)C1c1ccc(Cl)cc1 (configuration not stated)"
  score: 0.89
- molecule: "CO[C@@H]1C[C@@H](C[C@H]2CC[C@H](C)[C@H]([C@@H](C)C(=O)O)O2)O[C@]2(O[C@](C)([C@H]3CC[C@@](C)(C4O[C@@H](C5O[C@@](O)(CO)[C@H](C)C[C@@H]5C)C[C@@H]4C)O3)C[C@H]2C)[C@@H]1C (some centres not stated)"
  score: 0.17
- molecule: "CCCCCCCCCCCCCCCC[n+]1ccccc1"
  score: -0.08
- molecule: "CC[C@@]1(O)C[C@H](O[C@H]2C[C@H](N(C)C)[C@H](O)[C@H](C)O2)c2c(cc3c(c2O)C(=O)c2c(O)cccc2C3=O)[C@H]1C(=O)OC"
  score: 0.65
- molecule: "COC(=O)C1C(OC(=O)c2ccccc2)CC2CCC1N2C (configuration not stated)"
  score: 1.1
- molecule: "Clc1ccc(C(OCCN2CCCCC2)c2ccccc2)cc1 (configuration not stated)"
  score: 1.14
- molecule: "C[CH2][Hg][S]c1ccccc1C(=O)O"
  score: -0.03
- molecule: "Oc1cccc2cccnc12"
  score: 0.03
- molecule: "CN[C@@H](C)[C@@H](O)c1ccccc1"
  score: 1.57
- molecule: "CC(C)(O)[C@@H]1[C@H]2OC(=O)[C@@H]1[C@]1(O)C[C@H]3O[C@]34C(=O)O[C@H]2[C@]14C"
  score: 1.49
- molecule: "NCC(O)c1ccc(O)cc1 (configuration not stated)"
  score: 1.11
- molecule: "C=C[C@H]1CN2CC[C@H]1C[C@H]2[C@H](O)c1ccnc2ccccc12"
  score: 1.18
- molecule: "O=c1ccc2cc(O[C@@H]3O[C@H](CO)[C@@H](O)[C@H](O)[C@H]3O)c(O)cc2o1"
  score: 1.12

* * *

Assay: viability loss in pontine glioma line – cell-based, SU-DIPG-XXV, MIPE5.0, CellTiter-Glo, qHTS, dose response (AID 1347065);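 further: cells exposed to compound for 48 hours before ATP readout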
Settings: CellTiter-Glo ATP luminescence
Results filed as inconclusive are left out. Activity calls are given as the source filed them. The limit is not given here; nearly all actives have AC50 up to about 26 µM.
Possible outcomes: active, inactive

- compound: "C/C=C(/C)C(=O)O[C@H]1C(C)=C2[C@H]([C@@H]1OC(=O)CCCCCCC)[C@@](C)(OC(C)=O)C[C@H](OC(=O)CCC)[C@@]1(O)[C@H]2OC(=O)[C@@]1(C)O"
  classLabel: "active"
- compound: "CC(C)(C)c1cc(C=C(C#N)C#N)cc(Br)c1O"
  classLabel: "active"
- compound: "CO[C@H]1CCC(O[C@H]2C[C@H]([C@]3(C)CC[C@]4(C[C@H](O)[C@@H](C)[C@@H]([C@@H](C)/C=C(\\C)C(=O)[C@H](C)C[C@H](C)C(=O)O)O4)O3)O[C@]3(O[C@@H]([C@H]4O[C@@](O)(CO)[C@H](C)C[C@@H]4C)C[C@@H]3C)[C@@H]2C)O[C@@H]1C (stereo partly drawn)"
  classLabel: "active"
- compound: "C[C@@H]1C[C@@H]([C@H](O)CC2CC(=O)NC(=O)C2)C(=O)[C@@H](C)C1"
  classLabel: "active"
- compound: "CN[C@@H]1Cc2cccc3[nH]c(=O)n(c23)C1"
  classLabel: "inactive"
- compound: "O=C(CBr)N1CC([N+](=O)[O-])([N+](=O)[O-])C1"
  classLabel: "inactive"
- compound: "Cc1cccc(C)c1NC(=O)CN1CCCC1=O"
  classLabel: "inactive"
- compound: "C[C@H]1CCC/C=C/C2C[C@H](O)C[C@H]2[C@H](O)/C=C/C(=O)O1 (stereo partly drawn)"
  classLabel: "active"
- compound: "Cc1ccccc1-n1c(Cn2ncc3c(N)ncnc32)nc2cccc(C)c2c1=O"
  classLabel: "inactive"
- compound: "COC(=O)[C@@]12OC[C@]34[C@H]([C@@H](O)[C@@H]1O)[C@@]1(C)CC(=O)C(O)=C(C)[C@@H]1C[C@H]3OC(=O)[C@H](OC(=O)/C=C(\\C)C(C)C)[C@@H]24"
  classLabel: "active"
- compound: "C[C@@H](C1CC[C@@]2(O)C3=CC(=O)[C@@H]4C[C@@H](O)[C@@H](O)C[C@]4(C)[C@H]3CC[C@]12C)[C@H](O)CCC(C)(C)O (stereo partly drawn)"
  classLabel: "inactive"
- compound: "COC[C@@H](NC(C)=O)C(=O)NCc1ccccc1"
  classLabel: "inactive"
- compound: "C/C1=C/C[C@@H](/C(C)=C/c2csc(C)n2)OC(=O)C[C@H](O)C(C)(C)C(=O)[C@H](C)[C@@H](O)[C@@H](C)CCC1"
  classLabel: "active"
- compound: "O=C(O)CNC(=O)C1C(=O)N(C2CCCCC2)C(=O)N(C2CCCCC2)C1=O"
  classLabel: "inactive"
- compound: "Cc1cc(SCc2sc(-c3ccc(C(F)(F)F)c(F)c3)nc2C)ccc1OCC(=O)O"
  classLabel: "inactive"
- compound: "N[C@@H]1C[C@H]1c1ccccc1"
  classLabel: "inactive"
- compound: "O=P1(NCCCl)OCCCN1CCCl (stereo not drawn)"
  classLabel: "inactive"
- compound: "O=C(NCCCNc1nc(Nc2ccc(N3CCOCC3)cc2)ncc1C1CC1)C1CCC1"
  classLabel: "active"
